pest or weed control at 100 ppm by entry:
# Tested on: Plutella xylostella
# Assay Text: Pesticidal test against Plutella xylostella (cabbage leaf immersion)
# Type: in vivo
# Stated Conditions: 144 h, 3-stage larvae on treated cabbage leaf, 25° C., after 6 days, read-out: pesticidal rate

{"Molecule": "CSCCN(C(=O)c1ccccc1)c1cccc(C(=O)N(C)c2c(C)cc(C(F)(C(F)(F)F)C(F)(F)F)cc2C)c1 [5-71]", "pest or weed control at 100 ppm": "≥ 70%"}
{"Molecule": "Cc1cc(C(F)(C(F)(F)F)C(F)(F)F)cc(C)c1NC(=O)c1cccc(N(CC/C(N)=N/O)C(=O)c2ccccc2)c1 [5-91]", "pest or weed control at 100 ppm": "≥ 70%"}
{"Molecule": "Cc1cc(C(F)(C(F)(F)F)C(F)(F)F)cc(C)c1NC(=O)c1cccc(N(CCC(=O)NN)C(=O)c2ccc(C#N)cc2)c1F [5-83]", "pest or weed control at 100 ppm": "≥ 70%"}
{"Molecule": "COC(=O)CN(C(=O)c1cccc(N(C)C(=O)c2ccccc2)c1F)c1c(C)cc(C(F)(C(F)(F)F)C(F)(F)F)cc1C [7-221]", "pest or weed control at 100 ppm": "≥ 70%"}
{"Molecule": "COC(=O)CCN(C(=O)c1cccc(NC(=O)c2ccccc2)c1)c1c(C)cc(C(F)(C(F)(F)F)C(F)(F)F)cc1C [7-6]", "pest or weed control at 100 ppm": "≥ 70%"}
{"Molecule": "C/C(CCN(C(=O)c1ccccc1)c1cccc(C(=O)Nc2c(C)cc(C(F)(C(F)(F)F)C(F)(F)F)cc2C)c1)=N\\O [5-105]", "pest or weed control at 100 ppm": "≥ 70%"}
{"Molecule": "N#Cc1ccc(C(=O)N(CCS(N)(=O)=O)c2cccc(C(=O)Nc3c(Br)cc(C(F)(C(F)(F)F)C(F)(F)F)cc3Br)c2F)cc1 [2-133]", "pest or weed control at 100 ppm": "≥ 70%"}
